- ASSAY SUMMARY: Cytotoxicity against rat PC12 cells assessed as reduction in cell viability at 100 uM incubated for 24 hrs by MTT assay
- Type: cell-based
- PROTOCOL CONDITIONS: pc-12, 24 h
RECORDED ENDPOINT: Activity

Examples with answers:
molecule_smiles=O=C(/C=C/c1ccccc1)N1CCCC1=O recorded_endpoint=Activity result=Toxic
molecule_smiles=O=C(/C=C/c1ccc(C(F)(F)F)cc1)N1CCCCCC1=O recorded_endpoint=Activity result=Toxic
molecule_smiles=O=C(/C=C/c1ccc(C(F)(F)F)cc1)N1CCCCC1=O recorded_endpoint=Activity result=Toxic
molecule_smiles=O=C(/C=C/c1ccc(Br)cc1)N1CCCCC1=O recorded_endpoint=Activity result=Toxic
molecule_smiles=O=C(/C=C/c1ccc(Br)cc1)N1CCCC1=O recorded_endpoint=Activity result=Toxic
molecule_smiles=O=C(/C=C/c1ccc(C(F)(F)F)cc1)N1CCCC1=O recorded_endpoint=Activity result=Toxic

Batch lookup, Activity per entry.
1. O=C(/C=C/c1ccccc1)N1CCCCCC1=O
2. O=C(/C=C/c1ccc([N+](=O)[O-])cc1)N1CCCCC1=O

Outgoing:
1. Toxic
2. Toxic

Batch lookup, Activity per entry.
1. O=C(/C=C/c1ccc([N+](=O)[O-])cc1)N1CCCCCC1=O
2. O=C(/C=C/c1ccccc1)N1CCCCC1=O

Outgoing:
Toxic
Toxic
